system: Klebsiella aerogenes; assay: Antibacterial activity against Enterobacter aerogenes ATCC 13048 after 18 to 20 hrs by two-fold microbroth dilution method; assay type: functional
property_measured: MIC
Value and unit, in that order.

Please review the entries below; each comes with its answer.
cpd_smiles	target_or_system	obs_value
CC(=O)OC[C@H]1O[C@@H](NC(=S)N/N=C2/C(=O)Nc3c(Br)cc(Br)cc32)[C@H](OC(C)=O)[C@@H](OC(C)=O)[C@@H]1OC(C)=O	Klebsiella aerogenes	50 µM
CCCCN1C(=O)/C(=N/NC(=S)N[C@@H]2O[C@H](COC(C)=O)[C@@H](OC(C)=O)[C@H](OC(C)=O)[C@H]2OC(C)=O)c2ccccc21	Klebsiella aerogenes	12.5 µM

input: Quick check: MIC of "CC(=O)OC[C@H]1O[C@@H](NC(=S)N/N=C2/C(=O)Nc3ccc(Br)cc32)[C@H](OC(C)=O)[C@@H](OC(C)=O)[C@@H]1OC(C)=O" ?
output: 50 µM

----------
Below, each of the compounds is paired with its reported MIC value.
test system: Staphylococcus epidermidis; test: Antibacterial activity against Staphylococcus epidermidis ATCC 12228 after 18 to 20 hrs by two-fold microbroth dilution method; assay type: functional
API: value field is a number in µM; no unit string.

input: Query MIC on Staphylococcus epidermidis for "CCCCN1C(=O)/C(=N/NC(=S)N[C@@H]2O[C@H](COC(C)=O)[C@@H](OC(C)=O)[C@H](OC(C)=O)[C@H]2OC(C)=O)c2ccccc21"
output: 100

input: Do the same for "CCCN1C(=O)/C(=N/NC(=S)N[C@@H]2O[C@H](COC(C)=O)[C@@H](OC(C)=O)[C@H](OC(C)=O)[C@H]2OC(C)=O)c2ccccc21" please
output: 100

input: Do the same for CN[C@H](CC(C)C)C(=O)N[C@H]1C(=O)N[C@@H](CC(N)=O)C(=O)N[C@H]2C(=O)N[C@H]3C(=O)N[C@H](C(=O)N[C@H](C(=O)O)c4cc(O)cc(O)c4-c4cc3ccc4O)[C@H](O)c3ccc(c(Cl)c3)Oc3cc2cc(c3O[C@@H]2O[C@H](CO)[C@@H](O)[C@H](O)[C@H]2O[C@H]2C[C@](C)(N)[C@H](O)[C@H](C)O2)Oc2ccc(cc2Cl)[C@H]1O [VANCOMYCIN] please
output: 2.1

input: Do the same for "CC(=O)OC[C@H]1O[C@@H](NC(=S)N/N=C2/C(=O)Nc3ccc(F)cc32)[C@H](OC(C)=O)[C@@H](OC(C)=O)[C@@H]1OC(C)=O" please
output: 3.12

input: Do the same for "CC(=O)OC[C@H]1O[C@@H](NC(=S)N/N=C2/C(=O)Nc3ccc(C(C)C)cc32)[C@H](OC(C)=O)[C@@H](OC(C)=O)[C@@H]1OC(C)=O" please
output: 12.5

input: Do the same for "CCN1C(=O)/C(=N/NC(=S)N[C@@H]2O[C@H](COC(C)=O)[C@@H](OC(C)=O)[C@H](OC(C)=O)[C@H]2OC(C)=O)c2ccccc21" please
output: 100

----------
tested on: Rattus norvegicus; test: Antioxidant activity in CCL4-intoxicated Wistar albino rat assessed as liver cytosolic catalase activity per mg protein at 100 mg/kg, ip administered for 7 consecutive days after DL-alpha-tocopherol acetate treatment followed by CCL4 dosing measured after 24 hrs by H2O2 based assay (reference value: 220.15 +/- 11.43 U); type: functional
property_measured: Activity (U)
API: value field is a number in U; no unit string.

Please review the entries below; each comes with its answer.
cpd_smiles	target_or_system	Activity (U)
CC(=O)OC[C@H]1O[C@@H](NC(=S)N/N=C2/C(=O)Nc3ccccc32)[C@H](OC(C)=O)[C@@H](OC(C)=O)[C@@H]1OC(C)=O	Rattus norvegicus	295.32
CC(=O)OC[C@H]1O[C@@H](NC(=S)N/N=C2/C(=O)Nc3c(C)cccc32)[C@H](OC(C)=O)[C@@H](OC(C)=O)[C@@H]1OC(C)=O	Rattus norvegicus	250.63
CC(=O)OC[C@H]1O[C@@H](NC(=S)N/N=C2/C(=O)N(CCc3ccccc3)c3ccccc32)[C@H](OC(C)=O)[C@@H](OC(C)=O)[C@@H]1OC(C)=O	Rattus norvegicus	260.61
CC(=O)OC[C@H]1O[C@@H](NC(=S)N/N=C2/C(=O)N(CC(C)C)c3ccccc32)[C@H](OC(C)=O)[C@@H](OC(C)=O)[C@@H]1OC(C)=O	Rattus norvegicus	375.45
Oc1ccc(/C=C/c2cc(O)cc(O)c2)cc1	Rattus norvegicus	282.12

input: Quick check: Activity of "CC(=O)OC[C@H]1O[C@@H](NC(=S)N/N=C2/C(=O)Nc3c2cc(Cl)cc3[N+](=O)[O-])[C@H](OC(C)=O)[C@@H](OC(C)=O)[C@@H]1OC(C)=O" ?
output: 389.53

input: Do the same for "CCCN1C(=O)/C(=N/NC(=S)N[C@@H]2O[C@H](COC(C)=O)[C@@H](OC(C)=O)[C@H](OC(C)=O)[C@H]2OC(C)=O)c2ccccc21" please
output: 367.63

input: Do the same for "CC(=O)OC[C@H]1O[C@@H](NC(=S)N/N=C2/C(=O)Nc3ccc([N+](=O)[O-])cc32)[C@H](OC(C)=O)[C@@H](OC(C)=O)[C@@H]1OC(C)=O" please
output: 283.53

input: Do the same for "CC(=O)OC[C@H]1O[C@@H](NC(=S)N/N=C2/C(=O)Nc3ccc(C(C)C)cc32)[C@H](OC(C)=O)[C@@H](OC(C)=O)[C@@H]1OC(C)=O" please
output: 260.61

input: Do the same for "CC(=O)OC[C@H]1O[C@@H](NC(=S)N/N=C2/C(=O)Nc3ccc(F)cc32)[C@H](OC(C)=O)[C@@H](OC(C)=O)[C@@H]1OC(C)=O" please
output: 379.56

input: Do the same for "CC(=O)OC[C@H]1O[C@@H](NC(=S)N/N=C2/C(=O)Nc3c(Br)cc(Br)cc32)[C@H](OC(C)=O)[C@@H](OC(C)=O)[C@@H]1OC(C)=O" please
output: 397.53

input: Do the same for "CC(=O)OC[C@H]1O[C@@H](NC(=S)N/N=C2/C(=O)Nc3ccc(Br)cc32)[C@H](OC(C)=O)[C@@H](OC(C)=O)[C@@H]1OC(C)=O" please
output: 394.43

input: Do the same for "CC(=O)OC[C@H]1O[C@@H](NC(=S)N/N=C2/C(=O)Nc3c2cc(Br)cc3[N+](=O)[O-])[C@H](OC(C)=O)[C@@H](OC(C)=O)[C@@H]1OC(C)=O" please
output: 381.67
